Data origin, for the record: patent US7999000B2

p21/klf2 (RP3) listing for selected compounds.
# Tested on: klf2 promoter-luciferase construct in A204 cells
# ASSAY DETAILS: klf2 reporter gene induction (p21 versus klf2 selectivity)
# Type: cell-based
# STUDY CONDITIONS: relative selectivity at 3 micromolar compared with SNDX-275 (p21/klf2 ratio defined as 1.0)

- COMPOUND: "Nc1ccccc1NC(=O)/C=C/c1ccc(C(C(=O)Nc2ccc(Br)cc2)N2CCC(N3CCCCC3)C2)cc1 (stereo not shown) [Example 7-30]"
  p21/klf2 (RP3): 1.2
- COMPOUND: "CCN(CC)C1CCN(C(C(=O)Nc2ccc(C#N)cc2)c2ccc(/C=C/C(=O)Nc3ccccc3N)cc2)C1 (stereo not shown) [Example 7-16]"
  p21/klf2 (RP3): 0.7
- COMPOUND: "CCN(CC)C1CCN(C(C(=O)Nc2ccc(C(F)(F)F)cc2)c2ccc(/C=C/C(=O)Nc3ccccc3N)cc2)C1 (stereo not shown) [Example 7-7]"
  p21/klf2 (RP3): 2.1
- COMPOUND: "CN(C)[C@@H]1CCN(C(C(=O)Nc2ccc(C(F)(F)F)cc2)c2ccc(/C=C/C(=O)Nc3ccccc3N)cc2)C1 (stereo partly shown) [Example 7-6]"
  p21/klf2 (RP3): 2.3
